The entries below come with measured Ka values attached.
Assay: Binding affinity to Poly(dGdC).Poly(dGdC) (unknown origin)
Your answer is read as ×10⁶ /M, so omit the unit and give the number.

1) CN(C)CCn1c(=O)c2ccc3sc4ccccc4c4ccc(c1=O)c2c34 : 4.76

Now examine the next entry.
In plain terms, CN(C)CCN1C(=O)c2cccc3c2c(cc2c4ccccc4oc32)C1=O has a documented Ka of 6.36

###

System: P388
Experiment: Cytotoxicity against mouse P388 cells by tetrazolium-formazan assay
Format: functional, cell-based
QUANTITY: IC50 (nM)
Your answer is read as nM, so omit the unit and give the number.

Example entries begin here.
1. O=C1c2cccc3c2c(cc2c4ccccc4sc32)C(=O)N1CCN1CCNCC1 : 72400
2. CN(C)CCN1C(=O)c2cccc3c2c(cc2nc(-c4ccccc4)oc23)C1=O : 2500
3. CN(C)CCCN1C(=O)c2cccc3c2c(cc2c4ccccc4sc32)C1=O : 320
4. COc1ccc(-c2nc3cc4c5c(cccc5c3o2)C(=O)N(CCN(C)C)C4=O)cc1 : 1290
5. CN(C)CCN1C(=O)c2cccc3c2c(cc2nc(-c4ccc([N+](=O)[O-])cc4)oc23)C1=O : 100000

In plain terms, CCCCN1C(=O)c2cccc3c2c(cc2c4ccccc4sc32)C1=O has a documented IC50 of 740

In plain terms, Cc1ccc(-c2nc3cc4c5c(cccc5c3o2)C(=O)N(CCN(C)C)C4=O)cc1 has a documented IC50 of 19300

In plain terms, CN(C)CCCn1c(=O)c2ccc3sc4ccccc4c4ccc(c1=O)c2c34 has a documented IC50 of 630

In plain terms, COc1ccccc1-c1nc2cc3c4c(cccc4c2o1)C(=O)N(CCN(C)C)C3=O has a documented IC50 of 1300

###

System: A549
Assay: Cytotoxicity against human A549 cells by SRB assay
Type: functional, cell-based
// boundary case: IC50 equal to 900 nM maps to class 0; strictly smaller maps to class 1

Look over these answered cases.
1. CN(C)CCN1C(=O)c2cccc3c2c(cc2nc(-c4ccccc4)sc23)C1=O : class 1
2. CN(C)CCCN1C(=O)c2cccc3c2c(cc2c4ccccc4sc32)C1=O : class 1
3. CCCCN1C(=O)c2cccc3c2c(cc2c4ccccc4sc32)C1=O : class 0
4. CN(C)CCN1C(=O)c2cccc3c2c(cc2nc(-c4ccc([N+](=O)[O-])cc4)oc23)C1=O : class 0
5. Cc1ccc(-c2nc3cc4c5c(cccc5c3s2)C(=O)N(CCN(C)C)C4=O)cc1 : class 1
6. Cc1ccc(-c2nc3cc4c5c(cccc5c3o2)C(=O)N(CCN(C)C)C4=O)cc1 : class 0

## Input Hello, is IC50 of the following compound strictly smaller than 900 nM? COc1ccc(-c2nc3cc4c5c(cccc5c3o2)C(=O)N(CCN(C)C)C4=O)cc1
## Output class 0

## Input Hello, is IC50 of the following compound strictly smaller than 900 nM? CN(C)CCCn1c(=O)c2ccc3sc4ccccc4c4ccc(c1=O)c2c34
## Output class 1

## Input Hello, is IC50 of the following compound strictly smaller than 900 nM? CN(C)CCCn1c(=O)c2ccc3oc4ccccc4c4ccc(c1=O)c2c34
## Output class 0

## Input Hello, is IC50 of the following compound strictly smaller than 900 nM? O=c1c2ccc3oc4ccccc4c4ccc(c(=O)n1CCN1CCNCC1)c2c34
## Output class 0

## Input Hello, is IC50 of the following compound strictly smaller than 900 nM? O=C1c2cccc3c2c(cc2c4ccccc4sc32)C(=O)N1CCN1CCNCC1
## Output class 0

## Input Hello, is IC50 of the following compound strictly smaller than 900 nM? O=c1c2ccc3sc4ccccc4c4ccc(c(=O)n1CCN1CCNCC1)c2c34
## Output class 0

## Input Hello, is IC50 of the following compound strictly smaller than 900 nM? CCCCn1c(=O)c2ccc3oc4ccccc4c4ccc(c1=O)c2c34
## Output class 0

## Input Hello, is IC50 of the following compound strictly smaller than 900 nM? CCCCn1c(=O)c2ccc3sc4ccccc4c4ccc(c1=O)c2c34
## Output class 1

## Input Hello, is IC50 of the following compound strictly smaller than 900 nM? CN(C)CCn1c(=O)c2ccc3oc4ccccc4c4ccc(c1=O)c2c34
## Output class 1

## Input Hello, is IC50 of the following compound strictly smaller than 900 nM? CCCCN1C(=O)c2cccc3c2c(cc2c4ccccc4oc32)C1=O
## Output class 0

## Input Hello, is IC50 of the following compound strictly smaller than 900 nM? CN(C)CCN1C(=O)c2cccc3c2c(cc2c4ccccc4oc32)C1=O
## Output class 1

## Input Hello, is IC50 of the following compound strictly smaller than 900 nM? CN(C)CCCN1C(=O)c2cccc3c2c(cc2c4ccccc4oc32)C1=O
## Output class 1
